Assayed System: UniProtKB P00740
Sequence (P00740 227-461 limits assumed): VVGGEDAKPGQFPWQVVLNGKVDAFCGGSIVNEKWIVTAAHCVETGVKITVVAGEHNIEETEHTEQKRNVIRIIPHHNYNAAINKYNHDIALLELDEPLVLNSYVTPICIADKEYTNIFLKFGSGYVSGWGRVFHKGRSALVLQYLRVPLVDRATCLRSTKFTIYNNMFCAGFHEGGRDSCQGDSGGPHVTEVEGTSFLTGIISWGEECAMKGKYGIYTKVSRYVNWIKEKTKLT
Sequence (P00740 47-191 partner limits assumed): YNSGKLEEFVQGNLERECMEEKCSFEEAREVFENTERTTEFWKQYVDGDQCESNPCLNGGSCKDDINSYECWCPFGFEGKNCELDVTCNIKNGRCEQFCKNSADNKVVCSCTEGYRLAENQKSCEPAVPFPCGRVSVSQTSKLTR
Assay Method Text: Determination of inhibitory activity against Factor IXa (cleavage of fluorescent peptide CH3SO2-D-CHG-Gly-Arg-AFC)
Type: biochemical
Study Conditions: Factor IXa Inhibition table; low enzyme format; read-out: FIXa Low Enzyme
pIC50: −log10 of the molar value.
# pIC50 per record follows
Measurement Kind: pIC50

# Molecule, Measured Value
measured = [
    ("Nc1nsc2c1ccc1[nH]c([C@H](O)[C@H]3OCCN(c4cccc(C(F)(F)F)n4)C3=O)nc(=O)c12", 7.36),
    ("Nc1nsc2c1ccc1[nH]c([C@H](O)[C@H]3OCCN(c4cccc(C(O)C(F)(F)F)n4)C3=O)nc(=O)c12 (stereo partly shown)", 7.93),
    ("Cc1cc(N2CCO[C@H]([C@@H](O)c3nc(=O)c4c(ccc5c(N)nsc54)[nH]3)C2=O)nn1-c1ccncc1", 7.95),
    ("CC(O)(c1cccc(N2CCO[C@H]([C@@H](O)c3nc(=O)c4c(ccc5c(N)nsc54)[nH]3)C2=O)n1)C(F)(F)F (stereo partly shown)", 7.71),
    ("CC(C)(O)c1nc(N2CCO[C@H]([C@@H](O)c3nc(=O)c4c(ccc5c(N)nsc54)[nH]3)C2=O)ccc1C(F)(F)F", 7.59),
    ("N#Cc1ccc(-n2ccc(N3CCO[C@H]([C@@H](O)c4nc(=O)c5c(ccc6c(N)nsc65)[nH]4)C3=O)n2)cc1C(F)(F)F", 7.55),
    ("Cc1cc(N2CCO[C@H]([C@@H](O)c3nc(=O)c4c(ccc5c(N)nsc54)[nH]3)C2=O)nn1-c1cccnc1", 7.23),
]

---

# IC50 per record follows
Assayed System: UniProtKB P00740
Assay Method Text: Determination of inhibitory activity against Factor IXa (cleavage of fluorescent peptide CH3SO2-D-CHG-Gly-Arg-AFC)
Format: biochemical
Study Conditions: Factor IXa Inhibition table; low enzyme format; read-out: FIXa Low Enzyme
Measurement Kind: IC50 (nM)

# Smiles Record, Measurement Kind, Measured Value
measured = [
    ("Nc1nsc2c1ccc1[nH]c([C@H](O)[C@H]3OCCN(c4cccc(C5(O)CCC5)n4)C3=O)nc(=O)c12", "IC50", 24.8),
    ("Cc1cc(N2CCO[C@H]([C@@H](O)c3nc(=O)c4c(ccc5c(N)nsc54)[nH]3)C2=O)nn1-c1ccc(F)cc1", "IC50", 52.1),
    ("Nc1nsc2c1ccc1[nH]c([C@H](O)[C@H]3OCCN(c4cccc(C5CC5)n4)C3=O)nc(=O)c12", "IC50", 88.6),
    ("Nc1nsc2c1ccc1[nH]c([C@H](O)[C@H]3OCCN(c4ccn(-c5ccncc5)n4)C3=O)nc(=O)c12", "IC50", 4.65),
    ("N#Cc1ccc(-n2ccc(N3CCO[C@H]([C@@H](O)c4nc(=O)c5c(ccc6c(N)nsc65)[nH]4)C3=O)n2)cc1", "IC50", 3.07),
    ("CC(=O)OC1(c2cccc(N3CCO[C@H]([C@@H](O)c4nc(=O)c5c(ccc6c(N)nsc65)[nH]4)C3=O)n2)CCC1", "IC50", 31.5),
    ("Nc1nsc2c1ccc1[nH]c([C@H](O)[C@H]3OCCN(c4ccn(C5CC5)n4)C3=O)nc(=O)c12", "IC50", 39.8),
    ("COc1cc(-n2nc(N3CCO[C@H]([C@@H](O)c4nc(=O)c5c(ccc6c(N)nsc65)[nH]4)C3=O)cc2C)ccn1", "IC50", 58.2),
    ("Cc1cc(N2CCO[C@H]([C@@H](O)c3nc(=O)c4c(ccc5c(N)nsc54)[nH]3)C2=O)nn1C1CCOCC1", "IC50", 31.9),
    ("Nc1nsc2c1ccc1[nH]c([C@H](O)[C@H]3OCCN(c4ccn(-c5ccnnc5)n4)C3=O)nc(=O)c12", "IC50", 1.87),
    ("Nc1nsc2c1ccc1[nH]c([C@H](O)[C@H]3OCCN(c4ccn(-c5ccnc(C(F)(F)F)c5)n4)C3=O)nc(=O)c12", "IC50", 9.37),
    ("CC(C)(O)c1cccc(N2CCO[C@H]([C@@H](O)c3nc(=O)c4c(ccc5c(N)nsc54)[nH]3)C2=O)n1", "IC50", 12.3),
    ("Nc1noc2c1ccc1[nH]c([C@H](O)[C@H]3OCCN(c4ccn(-c5ccncc5)n4)C3=O)nc(=O)c12", "IC50", 14.5),
    ("Cc1cc(N2CCO[C@H]([C@@H](O)c3nc(=O)c4c(ccc5c(N)nsc54)[nH]3)C2=O)nn1C", "IC50", 43.7),
    ("Cc1cc(N2CCO[C@H]([C@@H](O)c3nc(=O)c4c(ccc5c(N)nsc54)[nH]3)C2=O)nn1-c1ccnc(C(F)(F)F)c1", "IC50", 17.8),
    ("Nc1nsc2c1ccc1[nH]c([C@H](O)[C@H]3OCCN(c4nc(C(F)(F)F)ccc4F)C3=O)nc(=O)c12", "IC50", 44.2),
    ("COc1cc(-n2ccc(N3CCO[C@H]([C@@H](O)c4nc(=O)c5c(ccc6c(N)nsc65)[nH]4)C3=O)n2)ccn1", "IC50", 10.8),
    ("Nc1nsc2c1ccc1[nH]c([C@H](O)[C@H]3OCCN(c4ccn(-c5ccc(=O)n(C(F)F)c5)n4)C3=O)nc(=O)c12", "IC50", 3.04),
    ("Nc1nsc2c1ccc1[nH]c([C@H](O)[C@H]3OCCN(c4cccc(OC(F)F)n4)C3=O)nc(=O)c12", "IC50", 83.3),
]
